Assay: label from the status in PepcDB records;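 further: failed if final PepcDB status was selected cloned or expressed and not failed if soluble or beyond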
attribute_measured: protein production

1) FQQTQDWVFIIDEKISRITANQSMRAVFDWPEEEFDFSDKLLGVSQKRRSFYRKLMLSLKEGEHWRGEELIVTANKDEYHVIINVTVGFSSVTNALHYLFVLTDIS: failed
2) MFVEVFIVGLLAGMSPGPDFFIVMKNSLGFGARVGILTSLGIASALIVHITYTVLGFAFLIETYPALFFTIQLLGAAYLIWLGFHAIRSSPPKKEEAEIEETQPIQSTKDSKSSIQGFKEGFITNLLNPKAALFFLSIFSQFITPQTADWVRWMYGLEVVVAVGLWFSFLAIFISYKHFRRFYQTHSYWFDRFLGAALLFFAIRIIIGAF: failed
3) MPDLMHSELTMSGPEQSLLAGALLGAGLPADAHRHLELAGRDYQSEALAEQHLREAHLLAPDHAAVLIGLYRFYFYKGRLGEALEVAQACLCKAARDNGLASDWRKVRRGDAEFSSYSAVLPRFYLFALKAYAYLQMRLGQLDEGHAAVEKLLELDPTDKVGAAVLLDVWRRIGLEHHHHHH: not failed
4) MILGEIMEVLAFKNQSLIDHVNDMVKYWERIKYRYLKTIKRALEALNIKLDIEKVDEFMKILIKLHDIGKASKIYQRAIINDQEKLMGFRHELVSAYYTYHILLKKFGDKNLAFIGALTVMLHHEPIIMGQIRNLKKKELTAEVVLDKLKKFDGMIEDFEDLIKKLIGYSIGDIIKNDSNKDDIIRFVIEMSVRARHTPNSEKLRFIVGTLLLPLVMCDYKGAESREGKAPKFAEVLEVESYVI: not failed

# credit: a protein production outcome set (Wang et al. 2014)
